Quick reference for log10 of EC50 among some molecules
# Test system: LNCap prostate tumor cells
# RUN DESCRIPTION: In vitro cytotoxicity, Alamar Blue assay, LNCaP cell kill in 72 hrs
# Type: cell-based
# EXPERIMENTAL CONDITIONS: Table 3, 3 days, TFA salt of cytotoxic agent unless otherwise indicated, read-out: LNCaP Cell Kill in 72 HRS EC5O
READOUT LABEL: log10 of EC50 (log10 of the value in nM)

- CCC1(O)CC2CN(CCc3c([nH]c4ccccc34)C(C(=O)OC)(c3cc4c(cc3OC)N(C)C3C(O)(C(=O)NC(CO)Cc5c[nH]c6ccccc56)C(O)C5(CC)C=CCN6CCC43C65)C2)C1 (stereo not shown): 2.78
- CCC1(O)CC2CN(CCc3c([nH]c4ccccc34)C(C(=O)OC)(c3cc4c(cc3OC)N(C)C3C(O)(C(=O)N5CCC(O)CC5)C(O)C5(CC)C=CCN6CCC43C65)C2)C1 (stereo not shown) [4-hydroxylpiperidine-(dAc)-VIN]: 2.30
- CCC(CO)NC(=O)[C@@]1(O)[C@H](O)[C@]2(CC)C=CCN3CC[C@@]4(c5cc([C@@]6(C(=O)OC)C[C@H]7CN(CCc8c6[nH]c6ccccc86)C[C@](O)(CC)C7)c(OC)cc5N(C)[C@@H]14)[C@@H]32 (stereo partly shown): 3.46
- CC[C@]1(O)C[C@@H]2CN(CCc3c([nH]c4ccccc34)[C@@](C(=O)OC)(c3cc4c(cc3OC)N(C)[C@H]3[C@@](O)(C(=O)N[C@H](CO)C(C)C)[C@H](O)[C@]5(CC)C=CCN6CC[C@]43[C@@H]65)C2)C1: 2.60
- CC[C@]1(O)C[C@@H]2CN(CCc3c([nH]c4ccccc34)[C@@](C(=O)OC)(c3cc4c(cc3OC)N(C)[C@H]3[C@@](O)(C(=O)NC(C)C(O)C5CCCCC5)[C@H](O)[C@]5(CC)C=CCN6CC[C@]43[C@@H]65)C2)C1 (single isomer, unassigned; isomer b) [(3-cyclohexyl-3-hydroxyl-2-propylaminol)-(dAc)-VIN isomer B]: 3.08
- CCC1(O)CC2CN(CCc3c([nH]c4ccccc34)C(C(=O)OC)(c3cc4c(cc3OC)N(C)C3C(O)(C(=O)NC(C)C(O)c5ccccc5)C(O)C5(CC)C=CCN6CCC43C65)C2)C1 (single isomer, unassigned; isomer a) [norephedrine-(dAc)-VIN, isomer A]: 3.48
- CC[C@]1(O)C[C@@H]2CN(CCc3c([nH]c4ccccc34)[C@@](C(=O)OC)(c3cc4c(cc3OC)N(C)[C@H]3[C@@](O)(C(=O)NC(C)C(O)C5CCCCC5)[C@H](O)[C@]5(CC)C=CCN6CC[C@]43[C@@H]65)C2)C1 (single isomer, unassigned; isomer a) [(3-cyclohexyl-3-hydroxyl-2-propylaminol)-(dAc)-VIN isomer A]: 2.48

----------
This section presents substances with their documented pEC50 values.
# System: LNCap prostate tumor cells
# RUN DESCRIPTION: In vitro cytotoxicity, Alamar Blue assay, LNCaP cell kill in 72 hrs
# Format: cell-based
# EXPERIMENTAL CONDITIONS: Table 5, 3 days, acetate salt of conjugate unless otherwise indicated, read-out: LNCaP Cell Kill in 72 HRS EC5O
pEC50: −log10 of the molar value.
READOUT LABEL: pEC50

- 4-des-Acetylvinblastine-23-(N-hydroxyacetyl-Abu-Ser-Ser-Chg-Gln-Ser-Pro-HCAP) amide (XSSXQSP; non-natural residues; cyclised or stapled): 5.70
- 4-des-Acetylvinblastine-23-(N-Acetyl-4-trans-L-Hyp-Ser-Ser-Chg-Gln-Ser-HCAP) Amide Acetate Salt: 5.47
- Ac-SChgQ-SS(4-trans-L-Hyp)-(HCAP)-dAc-VIN (XXQSSX; non-natural residues; cyclised or stapled): 5.23
